organism: Rattus norvegicus; test: Stimulation [3H]flunitrazepam binding to benzodiazepine binding site of GABA-A receptor in Sprague-Dawley rat cerebellum by liquid scintillation spectrophotometry; assay type: tissue-based
Observation Type: pEC50
Keep it numeric: pEC50 is minus log10 of the concentration in mol/L.

Some solved cases for reference:
{"Structure Smiles": "CC(=O)[C@H]1CC[C@H]2[C@@H]3CC[C@H]4C[C@H](O)CC[C@]4(C)[C@H]3CC[C@]12C", "Observation Type": "pEC50", "Numeric Result": 6.58}
{"Structure Smiles": "CC(=O)[C@H]1CC[C@H]2[C@@H]3CC[C@H]4C[C@H](O)[C@@H]5C[C@]4(COS(=O)(=O)N5)[C@H]3CC[C@]12C", "Observation Type": "pEC50", "Numeric Result": 7.20}

Consider the additional molecule presented here.
Input line: GET /values?readout=pEC50&item= CC(=O)[C@H]1CC[C@H]2[C@@H]3CC[C@H]4C[C@H](O)[C@@H]5C[C@]4(COS(=O)(=O)N5Cc4ccccc4)[C@H]3CC[C@]12C
Output line: 7.09
